TEST SYSTEM: Renin (Homo sapiens, UniProt P00797)
Sequence (P00797 whole entry): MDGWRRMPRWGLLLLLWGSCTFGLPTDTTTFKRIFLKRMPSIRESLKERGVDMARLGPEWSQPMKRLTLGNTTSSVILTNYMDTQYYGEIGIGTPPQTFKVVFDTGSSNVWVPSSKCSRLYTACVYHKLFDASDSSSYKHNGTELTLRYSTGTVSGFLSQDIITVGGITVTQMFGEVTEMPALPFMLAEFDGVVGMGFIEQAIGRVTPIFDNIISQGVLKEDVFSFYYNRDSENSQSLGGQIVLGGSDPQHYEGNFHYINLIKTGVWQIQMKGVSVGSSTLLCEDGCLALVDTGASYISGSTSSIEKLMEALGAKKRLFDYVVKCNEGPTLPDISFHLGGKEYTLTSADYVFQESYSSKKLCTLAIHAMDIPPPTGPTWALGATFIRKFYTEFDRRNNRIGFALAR
We'd kindly ask you to apply these IC50 classes: Low (below 4 µM), Mid (4 µM to below 10 µM), High (10 µM or more)

COMPOUND	ASSIGNED CATEGORY
CC(C)C[C@H](NC(=O)CC(O)[C@H](CC(C)C)NC(=O)C/C=C\[C@H](Cc1ccccc1)NC(=O)OC(C)(C)C)C(=O)NCc1ccccc1 (some centres not stated)	High
CC(C)C[C@H](NC(=O)CC(O)[C@H](CC(C)C)NC(=O)[C@H](Cc1ccccc1)NC[C@H](Cc1ccccc1)NC(=O)OC(C)(C)C)C(=O)NCc1ccccc1 (some centres not stated)	Mid
CC(C)C[C@H](NC(=O)C[C@@H](O)C(CC1CCCCC1)NC(=O)CC1OC1[C@H](Cc1ccccc1)NC(=O)OC(C)(C)C)C(=O)NCc1cccc(CN)c1 (some centres not stated)	Low
CC(C)C[C@H](NC(=O)CC(O)[C@H](CC(C)C)NC(=O)C/C=C/[C@H](Cc1ccccc1)NC(=O)OC(C)(C)C)C(=O)NCc1ccccc1 (some centres not stated)	Mid
CC(C)C[C@H](NC(=O)CC(O)[C@H](CC(C)C)NC(=O)CC1OC1[C@H](Cc1ccccc1)NC(=O)OC(C)(C)C)C(=O)NCc1ccccc1 (stereo in doubt; 32)	Low
CC(C)C[C@H](NC(=O)CC(O)[C@H](CC(C)C)NC(=O)[C@@H](CC(=O)[C@H](Cc1ccccc1)NC(=O)OCc1ccccc1)Cc1ccccc1)C(=O)NCc1ccccc1 (some centres not stated)	High
CC(C)C[C@H](NC(=O)OCc1ccccc1)C(=O)C[C@@H](Cc1ccccc1)C(=O)N[C@@H](CC(C)C)C(O)CC(=O)N[C@@H](CC(C)C)C(=O)NCc1ccccc1 (some centres not stated)	High
CC(C)CC(=O)N[C@H](CSCC(=O)N[C@@H](CC(C)C)C(O)CC(=O)N[C@@H](CC(C)C)C(=O)NCc1ccccc1)Cc1ccccc1 (some centres not stated)	High
CC(C)C[C@H](NC(=O)CC(O)[C@H](CC(C)C)NC(=O)[C@H](Cc1ccccc1)CC(O)[C@H](CC(C)C)NC(=O)OCc1ccccc1)C(=O)NCc1ccccc1 (some centres not stated)	Mid
CC(C)C[C@H](NC(=O)C[C@@H](O)C(CC1CCCCC1)NC(=O)/C=C/C(O)[C@H](Cc1ccccc1)NC(=O)OC(C)(C)C)C(=O)NCc1ccccc1 (some centres not stated)	Low
